target: Plasminogen (Homo sapiens) (UniProt P00747); test: Allosteric inhibition of full length human plasmin by using chromogenic substrate spectrozyme PL preincubated for 5 mins followed by substrate addition by spectrophotometric method
Sequence (P00747 97-580 limits assumed): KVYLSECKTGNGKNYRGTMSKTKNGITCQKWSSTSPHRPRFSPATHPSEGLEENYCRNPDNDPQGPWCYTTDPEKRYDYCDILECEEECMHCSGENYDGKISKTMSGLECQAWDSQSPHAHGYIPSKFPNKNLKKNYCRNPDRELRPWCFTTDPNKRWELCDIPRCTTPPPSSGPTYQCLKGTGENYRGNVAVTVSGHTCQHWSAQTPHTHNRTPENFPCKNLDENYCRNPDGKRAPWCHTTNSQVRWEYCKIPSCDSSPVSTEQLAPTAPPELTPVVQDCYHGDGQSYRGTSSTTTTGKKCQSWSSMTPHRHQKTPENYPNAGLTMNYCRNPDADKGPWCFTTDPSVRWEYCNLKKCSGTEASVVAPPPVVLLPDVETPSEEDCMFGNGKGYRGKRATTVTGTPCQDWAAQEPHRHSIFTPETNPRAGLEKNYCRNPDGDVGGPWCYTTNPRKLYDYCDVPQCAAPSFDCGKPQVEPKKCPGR
Sequence (P00747 581-810 limits assumed): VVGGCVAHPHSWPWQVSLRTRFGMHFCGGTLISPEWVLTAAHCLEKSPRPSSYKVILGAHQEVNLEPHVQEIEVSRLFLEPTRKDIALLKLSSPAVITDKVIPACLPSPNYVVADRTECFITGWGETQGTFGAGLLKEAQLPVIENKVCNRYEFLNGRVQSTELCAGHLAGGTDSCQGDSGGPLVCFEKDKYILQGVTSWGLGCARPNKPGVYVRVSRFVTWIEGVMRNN
attribute_measured: Efficacy (%)

Consider the worked cases shown below.
O=c1cc(-c2ccc(OS(=O)(=O)O)cc2)oc2cc(OS(=O)(=O)O)cc(OCc3ccc(COc4cc(OS(=O)(=O)O)cc5oc(-c6ccc(OS(=O)(=O)O)cc6)cc(=O)c45)cc3)c12	89
Cc1cc(COc2cc(OS(=O)(=O)O)cc3oc(-c4ccc(OS(=O)(=O)O)c(OS(=O)(=O)O)c4)c(OS(=O)(=O)O)c(=O)c23)c(C)cc1COc1cc(OS(=O)(=O)O)cc2oc(-c3ccc(OS(=O)(=O)O)c(OS(=O)(=O)O)c3)c(OS(=O)(=O)O)c(=O)c12	104
O=c1cc(-c2ccc(OS(=O)(=O)O)cc2)oc2cc(OS(=O)(=O)O)cc(OCCCCOc3cc(OS(=O)(=O)O)cc4oc(-c5ccc(OS(=O)(=O)O)cc5)cc(=O)c34)c12	90

(P) O=c1cc(-c2ccc(OS(=O)(=O)O)cc2)oc2cc(OS(=O)(=O)O)cc(OCc3cccc(COc4cc(OS(=O)(=O)O)cc5oc(-c6ccc(OS(=O)(=O)O)cc6)cc(=O)c45)n3)c12
(Q) O=c1c(O)c(-c2ccc(O)c(O)c2)oc2cc(O)cc(OCc3ccc(COc4cc(O)cc5oc(-c6ccc(O)c(O)c6)c(O)c(=O)c45)cc3)c12
Hi there, can you help? I need to know whether P or Q has lower measured Efficacy. Return value: the label identifying the chosen record. P

(P) O=c1c(OS(=O)(=O)O)c(-c2ccc(OS(=O)(=O)O)c(OS(=O)(=O)O)c2)oc2cc(OS(=O)(=O)O)cc(OCCCCOc3cc(OS(=O)(=O)O)cc4oc(-c5ccc(OS(=O)(=O)O)c(OS(=O)(=O)O)c5)c(OS(=O)(=O)O)c(=O)c34)c12
(Q) O=c1c(OS(=O)(=O)O)c(-c2ccc(OS(=O)(=O)O)c(OS(=O)(=O)O)c2)oc2cc(OS(=O)(=O)O)cc(OCc3cccc(COc4cc(OS(=O)(=O)O)cc5oc(-c6ccc(OS(=O)(=O)O)c(OS(=O)(=O)O)c6)c(OS(=O)(=O)O)c(=O)c45)c3)c12
Hi there, can you help? I need to know whether P or Q has lower measured Efficacy. Return value: the label identifying the chosen record. P

====

molecular target: Plasminogen (Homo sapiens); assay: Allosteric inhibition of full length human plasmin by using chromogenic substrate spectrozyme PL preincubated for 5 mins followed by substrate addition by spectrophotometric method
attribute_measured: Efficacy (%)

O=c1cc(-c2ccc(OS(=O)(=O)O)cc2)oc2cc(OS(=O)(=O)O)cc(OCCOc3cc(OS(=O)(=O)O)cc4oc(-c5ccc(OS(=O)(=O)O)cc5)cc(=O)c34)c12	79
O=c1cc(-c2ccc(OS(=O)(=O)O)cc2)oc2cc(OS(=O)(=O)O)cc(OCc3ccc(COc4cc(OS(=O)(=O)O)cc5oc(-c6ccc(OS(=O)(=O)O)c(OS(=O)(=O)O)c6)c(OS(=O)(=O)O)c(=O)c45)cc3)c12	109
O=c1c(OS(=O)(=O)O)c(-c2ccc(OS(=O)(=O)O)c(OS(=O)(=O)O)c2)oc2cc(OS(=O)(=O)O)cc(OCc3cccc(COc4cc(OS(=O)(=O)O)cc5oc(-c6ccc(OS(=O)(=O)O)c(OS(=O)(=O)O)c6)c(OS(=O)(=O)O)c(=O)c45)n3)c12	90
O=c1cc(-c2ccc(OS(=O)(=O)O)cc2)oc2cc(OS(=O)(=O)O)cc(OC/C=C/COc3cc(OS(=O)(=O)O)cc4oc(-c5ccc(OS(=O)(=O)O)cc5)cc(=O)c34)c12	90
